Data credit: ChEMBL document CHEMBL5058577

- System: Fibroblast
- ASSAY OVERVIEW: Multiplex assay against human fibroblast
- Type: toxicity, cell-based
- CONDITION INFO: 12 h, 10 µM, compound concentration 10 uM, replicate 2
Measured Population Healthy Nuclei (%) accompanies every entry in the list below.
Could you give me the number in %? Just the number is fine.

Example results:
[
  {
    "MOLECULE": "CN1CCN(c2ccc(Nc3c4ccccc4nc4ccccc34)cc2)CC1.Cl.Cl.O",
    "NUMBER": 29
  },
  {
    "MOLECULE": "COc1ccc2c(c1OCc1ccccc1)C[C@@H](C(=O)O)N(C(=O)C(c1ccccc1)c1ccccc1)C2 [OLODANRIGAN]",
    "NUMBER": 54
  },
  {
    "MOLECULE": "Cc1c(Cc2ccc3ccccc3n2)c2cc(F)ccc2n1CC(=O)O [TIMAPIPRANT]",
    "NUMBER": 53
  },
  {
    "MOLECULE": "COc1cc2nc(N3CCN(C(=O)COc4c(OC)cccc4C(C)C)CC3)nc(N)c2cc1OC.Cl.Cl",
    "NUMBER": 46
  },
  {
    "MOLECULE": "Nc1nc(-c2ccco2)c2cnn(Cc3ccccc3F)c2n1",
    "NUMBER": 44
  },
  {
    "MOLECULE": "C[C@H](NC(=O)CNC(=O)c1cccc(Cl)c1)c1ccccc1",
    "NUMBER": 43
  },
  {
    "MOLECULE": "C[C@@H]1CC(=O)Nc2cccc(-c3ccc4c(c3)c(-c3cnn(C)c3)nn4C)c2N1",
    "NUMBER": 58
  },
  {
    "MOLECULE": "O=c1ccc2ccc(OCCCCN3CCN(c4cccc5sccc45)CC3)cc2[nH]1 [BREXPIPRAZOLE]",
    "NUMBER": 49
  },
  {
    "MOLECULE": "CC(C)C[C@H](CO)Nc1nc(S[C@@H](C)c2ccccc2)nc2nc(N)sc12 [AZD-8797]",
    "NUMBER": 41
  }
]

Ask: Report Population Healthy Nuclei (%), nothing else, for this molecule: CCC(=O)OCC(=O)[C@@]1(OC(=O)CC)[C@@H](C)C[C@H]2[C@@H]3CCC4=CC(=O)C=C[C@]4(C)[C@@]3(Cl)[C@@H](O)C[C@@]21C [BECLOMETHASONE DIPROPIONATE]
Reply: 42

###

Measured Population Healthy Nuclei (%) accompanies every entry in the list below.
- Tested on: HEK-293T
- ASSAY OVERVIEW: Multiplex assay against HEK293T
- Type: toxicity, cell-based
- CONDITION INFO: human, 24 h, 1 µM, compound concentration 1 uM, replicate 1
Non-standard residues stand in square brackets, D forms with d. Residues, ends and D or L forms follow the SMILES beside them.
Could you give me the number in %? Just the number is fine.

Example results:
[
  {
    "MOLECULE": "Cc1cc(O)c(-c2ccc([C@@H](C)CN(C)C)cc2)c2c1[nH]c(=O)c1sccc12",
    "READOUT UNITS": "%",
    "NUMBER": 60
  },
  {
    "MOLECULE": "CC(F)(F)CN1CCOc2c(nn(-c3ccccc3Cl)c2-c2ccc(Cl)cc2)C1=O",
    "READOUT UNITS": "%",
    "NUMBER": 79
  },
  {
    "MOLECULE": "Nc1nc(-c2ccco2)c2cnn(Cc3ccccc3F)c2n1",
    "READOUT UNITS": "%",
    "NUMBER": 77
  },
  {
    "MOLECULE": "COc1c(Nc2ccc(S(C)(=O)=O)nc2C)ncnc1OC1CCN(C(=O)OC(C)C)CC1",
    "READOUT UNITS": "%",
    "NUMBER": 81
  },
  {
    "MOLECULE": "Cl.Cl.OCCOCCN1CCN(C(c2ccccc2)c2ccc(Cl)cc2)CC1 (stereo not drawn) [HYDROXYZINE HYDROCHLORIDE]",
    "READOUT UNITS": "%",
    "NUMBER": 78
  },
  {
    "MOLECULE": "Cc1cc(NC(=O)NCCN2CCC(O)(Cc3ccccc3)CC2)c2ccccc2n1",
    "READOUT UNITS": "%",
    "NUMBER": 78
  },
  {
    "MOLECULE": "CN1CCN2c3ccccc3Cc3ccccc3C2C1.Cl (stereo not drawn) [MIANSERIN HYDROCHLORIDE]",
    "READOUT UNITS": "%",
    "NUMBER": 80
  }
]

From here, focus on the item given below.
Ask: Report Population Healthy Nuclei (%), nothing else, for this molecule: CC(C)C[C@@H]1NC(=O)[C@@H](C(C)C)NC(=O)[C@@H]2CCCN2C(=O)[C@@H](CC(=O)O)NC(=O)[C@@H](Cc2c[nH]c3ccccc23)NC1=O [BQ-123] (cyclo(L[dW][dD]P[dV]))
Reply: 79
